- Assay target: pooled human IgG
Recorded Enzyme Activity Endpoint Assay (purified): IgG by entry
Measure: Enzyme Activity Endpoint Assay (purified): IgG (ng/µL)

1) PRT-55 (protein) MANQEIRYSEVTPYHVTSVWTKGVTPPANFTQGEDVFHAPYVANQGWYDITKTFNGKDDLLCGAATAGNMLHWWFDQNKDQIDRYLEEHPEKAKINFNGEQMFDVKEAIDTKNHQLDSKLFEYFKEKAFPYLSTKHLGVFPDLVIDMFINGYRLSLTNHGPTPVKEGSKDPRGGFFDAVFGRGDQSKLLTSRHDFKEKNLKEISDLIKKELTEGKALGLSHTYANVRINHVINLWGADFDSNGNLKAIYVTDSDSNASIGMKKYFVGVNSAGKVAISAKEIKEDNIGAQVLGLFTLSTGQDSWNQTN: 19
2) PRT-237 (protein) MEVVEVWPYGQNPNGKTEILSQTEDSESLQRLRDIEDFQAEKKMQNVVYTKWLDGVDVKDHDFRKIVDGNIEYYATPLLNGRGFYDINKDFNRDSDKCAAAVAANMFHYWLDINRDNVDRFLRQNPEKHGIIELPDGQLKLSDFLNTYESDHGYRDKSKLFDFISNNFNGPVWTDKLLDNYINGYAYNYKYGRTIEDPTKNTSKINFFKEVFNEKILTNNHSIRNQNEFSVLLSEALYTGKAIGLSYGPAGLRHSLGHIISVWGADLDADGNVVAIYVTDSDDKKLTIGDERVGLKRYKISTDDENRLRLTAYEETHNTGGQIRGLWTLDTGKYAWADYFDKTEQTGTDQAEQLEHHHHHH: 685
3) PRT-69 (protein) MANQEIRYSEVTPYHVTSVWTKGVTPPANFTQGEDVFHAPYVANQGWYDITKTFNGKDDLLCGAATAGNMLHWWFDQNKDQIKRYLEEHPEKQKINFNGEQMFDVKEAIDTKNDQLDSKLFEYFKEKAFPYLSTKHLGVFPDHVIDMFINGYRLSLTNHGPTPVKEGSKDPRGGIFDAVFTRGDQSKLLTSRHDFKEKNLKEISDLIKKELTEGKALGLSHTYANVRINHVINLWGADFDSNGNLKAIYVTDSDSNASIGMKKYFVGVNSAGKVAISAKEIKEDNIGAQVLGLFTLSTGQDSWNQTN: 14
4) PRT-68 (protein) MANQEIRYSEVTPYHVTSVWTKGVTPPANFTQGEDVFHAPYVANQGWYDITKTFNGKDDLLCGAATAGNMLHWWFDQNKDQIKRYLEEHPEKQKINFNGEQMFDVKEAIDTKNHQLDSKLFEYFKEKAFPYLSTKHLGVFPDHVIDMFINGYRLSLTNHGPTPVKEGSKDPRGGIFDDVFTRGDQSKLLTSRHDFKEKNLKEISDLIKKELTEGKALGLSHTYANVRINHVINLWGADFDSNGNLKAIYVTDSDSNASIGMKKYFVGVNSAGKVAISAKEIKEDNIGAQVLGLFTLSTGQDSWNQTN: 16
